The reported numbers originate from PubChem BioAssay (NCI).

Each entry below lists one item and its recorded TGI value.
system: HT29 colon; assay: NCI tumour cell line growth inhibition, 48 h
assayMetric: TGI

[[record]]
compound = "COc1cccc2c1[C@H]1OC(=O)NC1CCCCC2 (stereo partly drawn)"
assaymetric = "TGI"
readoutvalue = "> 100 µM"

[[record]]
compound = "CN(CCCNC(=O)c1c2ccc3ccccc3c2nn1C)CCCNC(=O)c1c2ccc3ccccc3c2nn1C"
assaymetric = "TGI"
readoutvalue = "6.93 µM"

[[record]]
compound = "COC(=O)[C@]1(C)[C@H]2C[C@H]3O[C@H]4[C@H](O)[C@@H](O)OC(CC(O)C(C5=CC(=O)OC5)C(C5=CC(=O)OC5)C(O)CC56CCCCC7[C@@H](C)[C@H](C[C@H]8[C@](C)(C(=O)OC)[C@H](O)CC[C@]78C)O[C@H]([C@@H](O)[C@H](O)O5)[C@H]6O)(CCCCC([C@@H]3C)[C@]2(C)CC[C@@H]1O)[C@H]4O (stereo partly drawn)"
assaymetric = "TGI"
readoutvalue = "0.825 µM"

[[record]]
compound = "CC(C)=NNc1ncnc2nc[nH]c12"
assaymetric = "TGI"
readoutvalue = "> 100 µM"

[[record]]
compound = "CC(=O)O[C@H]1C[C@@H](OC(C)=O)[C@@](C)(O)[C@@H]2[C@@H](OC(C)=O)[C@@]3(O)[C@H](/C=C(/CCl)[C@H]4O[C@H]4[C@@H](OC(C)=O)[C@@]12C)OC(=O)[C@@H]3C"
assaymetric = "TGI"
readoutvalue = "> 25 µM"

[[record]]
compound = "CON(C)C(=O)C(C)NC(=O)OC(C)(C)C (stereo not drawn)"
assaymetric = "TGI"
readoutvalue = "> 100 µM"

[[record]]
compound = "COc1cc2c3c(n(CCCN4CCSCC4)c(=O)c2cc1OC)-c1cc2c(cc1C3=O)OCO2"
assaymetric = "TGI"
readoutvalue = "> 100 µM"

[[record]]
compound = "NC(=O)C(=O)Cc1nc2ccccc2s1"
assaymetric = "TGI"
readoutvalue = "> 100 µM"

[[record]]
compound = "CC1(C)N=C(N)N=C(N)N1c1ccc(OCCCCNC(=O)Nc2cccc(S(=O)(=O)F)c2)c(Cl)c1"
assaymetric = "TGI"
readoutvalue = "> 100 µM"

[[record]]
compound = "Nc1n[nH]c2ccc([C@@H]3Nc4c(F)cc5[nH]ncc5c4[C@H]4C5CCC(C5)[C@@H]34)cc12 (stereo partly drawn)"
assaymetric = "TGI"
readoutvalue = "> 34.4 µM"

[[record]]
compound = "COc1cccc(/C=N/[N-]C(N)=O)c1[O-].[OH3+].[Pd+2]"
assaymetric = "TGI"
readoutvalue = "> 100 µM"

[[record]]
compound = "C=C(C)[C@@H]1CC[C@]2(C(=O)n3ccnc3)CC[C@]3(C)[C@H](CC[C@@H]4[C@@]5(C)CCCNC(C)(C)[C@@H]5CC[C@]43C)[C@@H]12"
assaymetric = "TGI"
readoutvalue = "2.17 µM"

[[record]]
compound = "O=C(CCC(=O)C1Cc2ccccc2C1=O)Nc1cccc(C(F)(F)F)c1 (stereo not drawn)"
assaymetric = "TGI"
readoutvalue = "> 100 µM"


---

system: MDA-N; experiment: NCI tumour cell line growth inhibition, 48 h
assayMetric: TGI

[[record]]
compound = "OC1CSCCSCCCSCCSC1"
targetundertest = "MDA-N"
readoutvalue = "> 100 µM"

[[record]]
compound = "O=C(c1ccccc1)c1ccc2nc3n(c2c1)C(c1c(Cl)cccc1Cl)SC3 (stereo not given)"
targetundertest = "MDA-N"
readoutvalue = "3.84 µM"

[[record]]
compound = "CCN(CC)Cc1ccc(Nc2c3ccccc3nc3ccccc23)cc1"
targetundertest = "MDA-N"
readoutvalue = "3.23 µM"

[[record]]
compound = "O=C1c2ccccc2/C=C\\C(c2ccccc2)=N/N1c1ccccc1Cl"
targetundertest = "MDA-N"
readoutvalue = "14.7 µM"

[[record]]
compound = "Cc1cc2c(cc1C)[n+](=O)c(C(=O)/C=C/c1ccccc1[N+](=O)[O-])c(C)n2[O-]"
targetundertest = "MDA-N"
readoutvalue = "> 100 µM"

[[record]]
compound = "CC(C)CCCC(C)[C@H]1CCC2[C@@H]3CCC4Cc5nc6c(nc5C[C@]4(C)C3CC[C@@]21C)CC1CC[C@@H]2C(CC[C@@]3(C)C2CC[C@@H]3O)[C@@]1(C)C6 (stereo not given in full)"
targetundertest = "MDA-N"
readoutvalue = "> 100 µM"

[[record]]
compound = "Cc1ccc(C=C(C(=O)O)C(=O)O)o1"
targetundertest = "MDA-N"
readoutvalue = "> 100 µM"

[[record]]
compound = "O=S(=O)(c1ccc2ccccc2c1)N1CCN(S(=O)(=O)c2ccc3ccccc3c2)CC1"
targetundertest = "MDA-N"
readoutvalue = "> 100 µM"

[[record]]
compound = "COc1ccc(/C=N/n2c(Cc3ccccc3)n[nH]c2=O)cc1"
targetundertest = "MDA-N"
readoutvalue = "> 100 µM"

[[record]]
compound = "CC(=O)Oc1ccc2cc(Oc3ccccc3)c(=O)oc2c1"
targetundertest = "MDA-N"
readoutvalue = "> 100 µM"


---

tested on: CCRF-CEM leukemia; test: NCI tumour cell line growth inhibition, 48 h
Listed compounds paired with reported TGI
assayMetric: TGI

[[record]]
compound = "O=S(=O)(O)c1ccc2c(N=Nc3c(O)ccc4ccccc34)cccc2c1"
targetundertest = "CCRF-CEM leukemia"
readoutvalue = "> 100 µM"

[[record]]
compound = "Cc1c(C)c2ccc(OC(C)C(=O)O)cc2oc1=O (stereo not given)"
targetundertest = "CCRF-CEM leukemia"
readoutvalue = "> 100 µM"

[[record]]
compound = "CCOC(=O)C1=C(C)N(Cc2ccc(Cl)cc2Cl)[C@]2(C#N)C(O)=C(Cl)C(Cl)=C(O)[C@]12C#N"
targetundertest = "CCRF-CEM leukemia"
readoutvalue = "37.3 µM"

[[record]]
compound = "O=C([O-])C1([n+]2c(-c3ccccc3)cc(-c3ccccc3)cc2-c2ccccc2)CC1"
targetundertest = "CCRF-CEM leukemia"
readoutvalue = "> 100 µM"

[[record]]
compound = "Cc1nn2c(-c3nc4cc(Cl)c(Cl)cc4[nH]3)c(-c3ccc(F)cc3)nc2s1"
targetundertest = "CCRF-CEM leukemia"
readoutvalue = "> 100 µM"

[[record]]
compound = "O=C(O)Cn1ccc(=O)c2c([N+](=O)[O-])cccc21"
targetundertest = "CCRF-CEM leukemia"
readoutvalue = "> 100 µM"

[[record]]
compound = "CCN(CCNc1ccc(C)c2sc3cc(Cl)ccc3c(=O)c12)CC(C)(C)O"
targetundertest = "CCRF-CEM leukemia"
readoutvalue = "61 µM"

[[record]]
compound = "CC1=CC(=O)c2c(O)c3c(c(O)c2C1=O)C1C(O)C(C3=O)C23C(=O)c4c(O)c(C)cc(O)c4C(O)=C2C(=O)CC(O)C13 (stereo not given)"
targetundertest = "CCRF-CEM leukemia"
readoutvalue = "> 100 µM"

[[record]]
compound = "O=C1Nc2ccccc2C1S(=O)(=O)c1ccccc1 (stereo not given)"
targetundertest = "CCRF-CEM leukemia"
readoutvalue = "> 100 µM"

[[record]]
compound = "NC(=O)C(=O)Cc1nc2ccccc2s1"
targetundertest = "CCRF-CEM leukemia"
readoutvalue = "> 100 µM"

[[record]]
compound = "O=C1c2ccccc2/C=C\\C(c2ccccc2)=N/N1c1ccccc1Cl"
targetundertest = "CCRF-CEM leukemia"
readoutvalue = "> 100 µM"

[[record]]
compound = "Cc1ccccc1CNc1c2ccccc2nc2ccccc12"
targetundertest = "CCRF-CEM leukemia"
readoutvalue = "12.6 µM"

[[record]]
compound = "CC(=O)OC1COC(Oc2c(C)c3c4c(c2O)[C@@H](C)CC[C@@H]4[C@@H](C)C[C@H]3C=C(C)C)C(O)C1O (stereo not given in full)"
targetundertest = "CCRF-CEM leukemia"
readoutvalue = "35.6 µM"

[[record]]
compound = "O=C1CC(=O)NC(=NN2C(=O)/C(=C/c3ccc(Cl)cc3)N=C2c2ccccc2)N1"
targetundertest = "CCRF-CEM leukemia"
readoutvalue = "24.8 µM"

[[record]]
compound = "COc1ccc2c(C(=O)c3c(C)n(CCN4CCOCC4)c4ccccc34)cccc2c1"
targetundertest = "CCRF-CEM leukemia"
readoutvalue = "27.1 µM"

[[record]]
compound = "CCCC(=O)OC1C(C2COC(C)(C)O2)OC2OC(C)(C)OC21 (stereo not given)"
targetundertest = "CCRF-CEM leukemia"
readoutvalue = "> 100 µM"

[[record]]
compound = "CC(C)c1cc(C(C)C)c(Cl)c(Cl)c1O (tested in a mixture with another compound)"
targetundertest = "CCRF-CEM leukemia"
readoutvalue = "> 100 µM"

[[record]]
compound = "NNC(=O)N/N=C1\\CNC(=O)C(=O)C1c1nc2ccccc2s1 (stereo not given)"
targetundertest = "CCRF-CEM leukemia"
readoutvalue = "> 100 µM"

[[record]]
compound = "Brc1ccc(-c2nc(-c3ccc(Br)cc3)n(-c3ccccc3)n2)cc1"
targetundertest = "CCRF-CEM leukemia"
readoutvalue = "> 100 µM"

[[record]]
compound = "Cc1cn2c(/C=C3/C(=O)Nc4ccc(C(=O)O)cc43)c(C)nc2s1"
targetundertest = "CCRF-CEM leukemia"
readoutvalue = "> 100 µM"

